# TESTED_SYSTEM: T1, human CEACAM5 on tumor cells (LOVO, LS174T, KATO3) (human, UniProt P06731 35-685)
# T1 construct: whole, on cells; also called LOVO cells; LS174T cells
# T1 sequence (looked up): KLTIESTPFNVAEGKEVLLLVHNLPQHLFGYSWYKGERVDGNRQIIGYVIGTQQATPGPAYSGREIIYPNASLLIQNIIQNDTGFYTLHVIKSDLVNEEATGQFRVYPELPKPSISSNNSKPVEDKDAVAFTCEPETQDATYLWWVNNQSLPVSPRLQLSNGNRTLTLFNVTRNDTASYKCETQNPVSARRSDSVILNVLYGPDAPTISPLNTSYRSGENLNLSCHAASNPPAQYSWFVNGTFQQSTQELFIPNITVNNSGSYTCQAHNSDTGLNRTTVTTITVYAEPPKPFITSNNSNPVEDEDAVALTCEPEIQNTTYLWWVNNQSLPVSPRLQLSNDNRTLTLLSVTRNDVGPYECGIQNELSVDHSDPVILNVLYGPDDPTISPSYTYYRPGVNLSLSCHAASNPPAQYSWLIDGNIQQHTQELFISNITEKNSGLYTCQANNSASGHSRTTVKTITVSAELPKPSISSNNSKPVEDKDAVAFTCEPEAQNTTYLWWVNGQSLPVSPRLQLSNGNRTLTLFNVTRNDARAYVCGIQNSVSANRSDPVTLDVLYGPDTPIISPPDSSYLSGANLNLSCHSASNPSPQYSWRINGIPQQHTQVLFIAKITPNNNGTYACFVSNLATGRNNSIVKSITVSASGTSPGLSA
# EXPERIMENT_DESCRIPTION: FACS on LS174T cells
# Procedure: LS174T cells (tumor cells with high expression of CEACAM5) were cultured in RPMI1640 medium containing 10% FBS. […] After incubation, the cells were washed once with FACS buffer, resuspended in 200 μl FACS buffer, and the fluorescence signal value was read in BD C6 plus. […]
REPORTED_PROPERTY: EC50
Quote the value and follow it with the unit of measurement.

Before answering, review these 3 worked examples.
[[record]]
binder = "UM05-5L C47W (antibody, human IgG1, kappa, V domains shown, also called mutated human-mouse chimeric antibody UM05-5L (VH Cys47 to Trp)) VH: QVQLQQSDADLVKPGASVKISCKVSGYTFTDHTIHWMKQRPEQGLEWIGYIYPRDGNTKYNEKFKGKATLTADRSSITAYMQLNSLTSEDSAVYFCARPIYDGYSFDYWGQGTTLTVSS VL: QIVLTQSPAIMSASPGEKVTMTCRASSSVSYMHWYQQKSGTSPKRWIYDTSKLASGVPARFSGSGSGTSYSLTISSMAAEDAATYYCQQWTRNPPTFGAGTKLELKR"
reported_property = "EC50"
result = "2.46 µg/mL"

[[record]]
binder = "human-mouse chimeric antibody UM05-5L (antibody, human IgG1, kappa, V domains shown, expressed in HEK293) VH: QVQLQQSDADLVKPGASVKISCKVSGYTFTDHTIHWMKQRPEQGLECIGYIYPRDGNTKYNEKFKGKATLTADRSSITAYMQLNSLTSEDSAVYFCARPIYDGYSFDYWGQGTTLTVSS VL: QIVLTQSPAIMSASPGEKVTMTCRASSSVSYMHWYQQKSGTSPKRWIYDTSKLASGVPARFSGSGSGTSYSLTISSMAAEDAATYYCQQWTRNPPTFGAGTKLELKR"
reported_property = "EC50"
result = "0.81 µg/mL"

[[record]]
binder = "hUM05-3 W47C (antibody, V domains shown, also called mutated humanized antibody hUM05-3 (VH Trp47 to Cys)) VH: EVQLVQSGAEVKKPGATVKISCKVSGYTFTDHTMHWMQQAPGQGLECIGLIYPRDGSTIYNEKFQGRATLTADRSTDTAYMELSSLRSEDTAVYFCARPIYDGYSFDYWGQGTLVTVSS VL: QIVLTQSPATLSASPGERATLSCRASSSVSYMHWYQQKPGQAPKRWIYDTSNRATGVPARFSGSGSGTDYTLTISSMEPEDAAVYYCQQWTRNPPTFGQGTKLELK"
reported_property = "EC50"
result = "1.47 µg/mL"


Please turn your attention to the following entry.
Challenge: So what's the measured EC50 for this one? humanized antibody hUM05-3 (antibody, V domains shown, detected with anti-human IgG Fc-APC) VH: EVQLVQSGAEVKKPGATVKISCKVSGYTFTDHTMHWMQQAPGQGLEWIGLIYPRDGSTIYNEKFQGRATLTADRSTDTAYMELSSLRSEDTAVYFCARPIYDGYSFDYWGQGTLVTVSS VL: QIVLTQSPATLSASPGERATLSCRASSSVSYMHWYQQKPGQAPKRWIYDTSNRATGVPARFSGSGSGTDYTLTISSMEPEDAAVYYCQQWTRNPPTFGQGTKLELK
Response given: 0.53 µg/mL
